Hey, just so you know, these numbers are from the supplement of paper PMC10567573.

B1: ATL3 (parent)
chain: QELEEEIKELYENFCKHNGSKNVF

Variants of: B1
Experiment: protein stability index of a GFP-peptide fusion (GPS, HEK-293T) (PSI 1-6); higher = more stable;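 note: lentivirally expressed fusions sorted by FACS into six bins by GFP to DsRed ratio, PSI derived from sequencing read proportions per bin multiplied by bin number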
Conditions: c terminus: a fixed tail appended
Recorded measurements of protein stability index, one per entry
Reply: number alone, nothing else.

Reference set, count: 5
1. C15P | 3.91
2. N18L | 3.23
3. L3G | 4.49
4. E4A | 1.97
5. L10A | 3.48

Inquiry: Sample `F14G` — what was its protein stability index?
Reply text: 4.42

Inquiry: Follow-up item: `N18Y`
Reply text: 2.37

Inquiry: Follow-up item: `N13G`
Reply text: 3.76
